Cited source: patent US20230372301A1

- assayInfo: Pharmacokinetics of single oral doses of nirogacestat dihydrobromide
- Format: in vivo, human
- testContext: human, in vivo, po, 50 mg, COHORT 3: 50 mg, Period 1, read-out: Tmax, Median
Structures can show the parent of a compound that is named as a salt.
valueType: Tmax

compound | valueType | value
CCC[C@H](N[C@H]1CCc2cc(F)cc(F)c2C1)C(=O)Nc1cn(C(C)(C)CNCC(C)(C)C)cn1 [nirogacestat dihydrobromide] | Tmax | 1 h

* * *

- assayInfo: Pharmacokinetics of single oral doses of nirogacestat dihydrobromide
- Type: in vivo, human
- testContext: human, in vivo, po, 150 mg, COHORT 1: 150 mg (3 × 50 mg), Period 1, read-out: Vz/F, Median
Counter-ions that a name gives are not always drawn.

molecule | Vd/F / L
CCC[C@H](N[C@H]1CCc2cc(F)cc(F)c2C1)C(=O)Nc1cn(C(C)(C)CNCC(C)(C)C)cn1 [nirogacestat dihydrobromide] | 1830
